# System: LOX IMVI melanoma
# ASSAY INFO: NCI tumour cell line growth inhibition, 48 h; in the data active = GI50 below about 0.43 µM; inactive = the rest
*1 amine or outer side, *2 acyl side, *3 side chain or, on linkers, in order; H or OH if unused. Where a SMILES comes first, the peptide text is derived from it. CO = O=C([*:1])[*:2]
Labels: YES = active, NO = inactive

[[record]]
compound = "COc1ccc2c(c1)C(=O)c1c-2c(N2CCN(C(=O)CN(C)C)CC2)nc2ccccc12"
label = "NO"

[[record]]
compound = "C/C(=C\\c1ccn(-c2ccc(N)cc2C(F)(F)F)n1)[C@@H]1C[C@@H]2O[C@]2(C)CCC[C@H](C)[C@H](O)[C@@H](C)C(=O)C(C)(C)[C@@H](O)CC(=O)O1"
label = "NO"

[[record]]
compound = "COc1cc(-c2ccc(-[n+]3nc(-c4ccc([N+](=O)[O-])cc4)nn3-c3ccc([N+](=O)[O-])cc3)c(OC)c2)ccc1-[n+]1nc(-c2ccc([N+](=O)[O-])cc2)nn1-c1ccc([N+](=O)[O-])cc1"
label = "YES"

[[record]]
compound = "CC(C)C(NC(=O)C(CCCN=C(N)N)NC(=O)NC(Cc1ccccc1)C(=O)O)C(=O)NC(C=O)CCCN=C(N)N (stereo not drawn) ({Phe-CO}-Arg-Val-Arg-aldehyde; configuration not given here)"
label = "NO"

[[record]]
compound = "N#C/C(=C\\c1ccc(Cl)cc1)n1nnc2cc(F)c(F)cc21"
label = "NO"

[[record]]
compound = "CN(C)c1ccc2[nH]c(O)c(C=Nc3ccc(S(N)(=O)=O)cc3)c2c1"
label = "NO"


###

Let's look at some molecules and their measured TGI.
# System: A549 NSCLC
# ASSAY INFO: NCI tumour cell line growth inhibition, 48 h
ASSAY READOUT: TGI

[[record]]
molecule = "O=C1c2ccccc2-c2ccc(O)cc21"
assay_readout = "TGI"
result = "88 µM"

[[record]]
molecule = "Nc1ccn(C2OC(COP(=O)(O)O)C(O)C2O)c(=O)n1 (stereo unspecified)"
assay_readout = "TGI"
result = "> 100 µM"

[[record]]
molecule = "C[N+]1(C)C2CCC1CC(OC(=O)C(CO)c1ccccc1)C2 (stereo unspecified)"
assay_readout = "TGI"
result = "> 100 µM"

[[record]]
molecule = "Nc1nc(F)nc2c1ncn2C1OC(COP(=O)(O)O)C(O)C1O (stereo unspecified)"
assay_readout = "TGI"
result = "511 µM"

[[record]]
molecule = "O=C(c1cccs1)c1c(C(F)(F)F)n([O-])c2cc(C(F)(F)F)ccc2[n+]1=O"
assay_readout = "TGI"
result = "0.69 µM"

[[record]]
molecule = "CO[C@@]12C[C@@H](CNC(=O)c3cc(Br)c[nH]3)O[C@@H]1NC(=O)N2"
assay_readout = "TGI"
result = "> 100 µM"

[[record]]
molecule = "Cc1nc(Cl)c(C)c(Cl)n1"
assay_readout = "TGI"
result = "> 100 µM"

[[record]]
molecule = "CNC(=O)c1ccc(Nc2nc(OC3CCCC3)c3c(-c4ccc5nc(C)oc5c4)c[nH]c3n2)c(OC)c1"
assay_readout = "TGI"
result = "> 100 µM"

[[record]]
molecule = "O=c1oc2ccccc2c(O)c1C(c1ccc2ccccc2c1)c1c(O)c2ccccc2oc1=O"
assay_readout = "TGI"
result = "> 100 µM"

[[record]]
molecule = "COc1ccc(-c2cc(=O)c3c(O)c(OC)c(O)cc3o2)cc1O"
assay_readout = "TGI"
result = "> 100 µM"

[[record]]
molecule = "O=C1OC(c2ccccc2)(c2ccccc2)CC1CN1CCOCC1 (stereo unspecified)"
assay_readout = "TGI"
result = "24.5 µM"

[[record]]
molecule = "N#CC(c1ccc(Cl)cc1)c1cccc(Cl)n1 (stereo unspecified)"
assay_readout = "TGI"
result = "> 100 µM"

[[record]]
molecule = "OCC1OC(O)C(N=Cc2ccc3c(c2)OCO3)C(O)C1O (stereo unspecified)"
assay_readout = "TGI"
result = "> 100 µM"

[[record]]
molecule = "COc1ccc(OC)c2sc(N3C(=O)/C(=C/c4ccccc4S)N=C3c3ccccc3)nc12"
assay_readout = "TGI"
result = "> 100 µM"

[[record]]
molecule = "CC1=C(C#N)C(=O)N(/N=C/c2ccc(Cl)cc2)C(=O)/C1=c1\\o/c(=C2/C(=O)N(/N=C/c3ccc(Cl)cc3)C(=O)C(C#N)=C2C)c2nccnc12"
assay_readout = "TGI"
result = "> 100 µM"

[[record]]
molecule = "Cc1ccc(-c2cnc(NC3OC(COC(=O)c4ccccc4)C(OC(=O)c4ccccc4)C(OC(=O)c4ccccc4)C3OC(=O)c3ccccc3)s2)cc1 (stereo unspecified)"
assay_readout = "TGI"
result = "> 100 µM"

[[record]]
molecule = "CCSc1nc(=S)[nH]c2[nH]ncc12"
assay_readout = "TGI"
result = "> 100 µM"

[[record]]
molecule = "CCCCCCCCO/N=C\\c1c2c(O)c3c(O)c(C)c4c(c3c1O)C(=O)C(C)(O/C=C\\C(OC)C(C)C(OC(C)=O)C(C)C(O)C(C)C(O)C(C)/C=C\\C=C(\\C)C(=O)N2)O4 (stereo unspecified)"
assay_readout = "TGI"
result = "6.42 µM"

[[record]]
molecule = "C=CCNC(NCC=C)=C(C(Cl)=C(Cl)Cl)[N+](=O)[O-]"
assay_readout = "TGI"
result = "> 100 µM"

[[record]]
molecule = "CCCOc1ccc(/C=C/C2=[N+](CCO)CCO2)cc1"
assay_readout = "TGI"
result = "> 100 µM"

[[record]]
molecule = "COc1ccc2cc(CNCCCN3CCN(CCCNCc4ccc5cc(OC)ccc5c4)CC3)ccc2c1"
assay_readout = "TGI"
result = "3.31 µM"


###

# Tested on: SF-539 CNS
# ASSAY INFO: NCI tumour cell line growth inhibition, 48 h
// values below are reported GI50
ASSAY READOUT: GI50

[[record]]
compound = "O=c1[nH]cnc2c1nnn2[C@@H]1O[C@H](CO)[C@@H](O)[C@H]1O"
assay_readout = "GI50"
result = "7.66 µM"

[[record]]
compound = "Cc1cc(Nc2ncc(Cl)c(Nc3ccccc3S(=O)(=O)C(C)C)n2)c(OC(C)C)cc1C1CCNCC1"
assay_readout = "GI50"
result = "1.62 µM"

[[record]]
compound = "O=C(/C=C/c1ccc2c(c1)OCO2)c1ccccc1"
assay_readout = "GI50"
result = "20.5 µM"

[[record]]
compound = "O=C(/C=C/C12c3ccccc3C(c3ccccc31)C1C(=O)NC(=O)C12)c1ccco1 (centres undefined)"
assay_readout = "GI50"
result = "2.04 µM"


###

# System: SF-539 CNS
# ASSAY INFO: NCI tumour cell line growth inhibition, 48 h
ASSAY READOUT: TGI

[[record]]
compound = "CC1=C(C#N)C(=O)N(/N=C/c2ccc(Cl)cc2)C(=O)/C1=c1\\o/c(=C2/C(=O)N(/N=C/c3ccc(Cl)cc3)C(=O)C(C#N)=C2C)c2nccnc12"
result = "> 100 µM"

[[record]]
compound = "Cc1ccc(S(=O)(=O)Oc2coc(CO)cc2=O)cc1"
result = "87.8 µM"

[[record]]
compound = "Nc1ccn(C2OC(COP(=O)(O)O)C(O)C2O)c(=O)n1 (centres undefined)"
result = "> 30.2 µM"

[[record]]
compound = "Cc1nc2c(s/c(=N\\N)n2-c2ccccc2)c(=O)[nH]1"
result = "> 100 µM"

[[record]]
compound = "C=CCNC(NCC=C)=C(C(Cl)=C(Cl)Cl)[N+](=O)[O-]"
result = "71.7 µM"

[[record]]
compound = "N#Cc1c(SCc2ccccc2)nc2[nH]c(=S)[nH]c(=S)c2c1-c1ccco1"
result = "> 100 µM"

[[record]]
compound = "CNC(=O)C(C)NC(=O)C(Cc1ccccc1)NC(=O)OC(C)(C)C (centres undefined)"
result = "> 100 µM"

[[record]]
compound = "COc1cc(C(=O)O)ccc1NC(=O)[C@@H]1N[C@@H](CC(C)(C)C)[C@](C#N)(c2ccc(Cl)cc2F)[C@H]1c1cccc(Cl)c1F"
result = "11.5 µM"

[[record]]
compound = "c1cc2[se][se]c3c4cccc5[se][se]c(c(c1)c23)c54"
result = "> 100 µM"


###

The entries below are paired with their reported TGI.
# Test system: SNB-75 CNS
# ASSAY INFO: NCI tumour cell line growth inhibition, 48 h
ASSAY READOUT: TGI (µM)

[[record]]
compound = "CCN(CC)CCN1CCN=c2c3cc(OC)ccc3n3cnc4ccc1c2c43"
inequality_operator = "="
number = 2.27

[[record]]
compound = "COc1c(C(CC(C)C)OC(C)=O)ccc2c1C(=O)OCc1cc(C)cc(O)c1O2 (stereo unspecified)"
inequality_operator = "="
number = 42.1

[[record]]
compound = "OC1OC(c2ccc[nH]2)C(F)(F)C(F)(F)C1(F)F (stereo unspecified)"
inequality_operator = ">"
number = 100

[[record]]
compound = "CC(C)CC(=O)OC[n+]1cccc(-c2c(COC(=O)NC(C)C)c(COC(=O)NC(C)C)c3n2CCC3)c1"
inequality_operator = ">"
number = 100

[[record]]
compound = "N#CCc1[nH]nc2nc(SCc3ccccc3)nc(N3CCCCC3)c12"
inequality_operator = "="
number = 33.7

[[record]]
compound = "c1cncc(-c2cc(-c3cc(-c4cccnc4)n[nH]3)[nH]n2)c1"
inequality_operator = ">"
number = 100

[[record]]
compound = "O=C(CSc1nnc(-c2ccc(N=Cc3ccc(Cl)cc3)cc2)o1)Nc1ccccc1"
inequality_operator = ">"
number = 100

[[record]]
compound = "c1cc2[se][se]c3c4cccc5[se][se]c(c(c1)c23)c54"
inequality_operator = ">"
number = 100

[[record]]
compound = "c1ccc2c(c1)n1c(N3CCOCC3)[n+]3ccccc3c1c1c3cccc[n+]3c(N3CCOCC3)n21"
inequality_operator = ">"
number = 100

[[record]]
compound = "CC[N+](CC)(CC)Cc1cn(S(=O)(=O)c2ccccc2)c2ccccc12"
inequality_operator = ">"
number = 100

[[record]]
compound = "CO[C@H]1C[C@@H]2CC[C@@H](C)[C@@](O)(O2)C(=O)C(=O)N2CCCC[C@H]2C(=O)O[C@H]([C@H](C)C[C@@H]2CC[C@@H](OC(=O)C(C)(CO)CO)[C@H](OC)C2)CC(=O)[C@H](C)/C=C(\\C)[C@@H](O)[C@@H](OC)C(=O)[C@H](C)C[C@H](C)/C=C/C=C/C=C/1C"
inequality_operator = "="
number = 24.4

[[record]]
compound = "CO[C@@]12C[C@@H](CNC(=O)c3cc(Br)c[nH]3)O[C@@H]1NC(=O)N2"
inequality_operator = ">"
number = 100

[[record]]
compound = "CC(=O)C1=C(O)C2(O)C(=O)c3c(c(C)c4ccc(C)c(O)c4c3O)CC2C(N)C1=O (stereo unspecified)"
inequality_operator = "="
number = 16.7

[[record]]
compound = "O=C1OC(c2ccccc2)(c2ccccc2)CC1CN1CCOCC1 (stereo unspecified)"
inequality_operator = "="
number = 49.1

[[record]]
compound = "Cc1cc(S(=O)(=O)/N=C(\\N)n2nc(C)c(C)c2C)c(SCc2ccccc2)cc1Cl"
inequality_operator = ">"
number = 100

[[record]]
compound = "O=C1OC(c2ccccc2)=N/C1=C/c1cccs1"
inequality_operator = ">"
number = 100

[[record]]
compound = "Cc1cc(Nc2ncc(Cl)c(Nc3ccccc3S(=O)(=O)C(C)C)n2)c(OC(C)C)cc1C1CCNCC1"
inequality_operator = "="
number = 2.44

[[record]]
compound = "C=C1C(=O)O[C@H]2[C@H]1CC/C(Cn1cc(Cn3ccc4cc(Cl)ccc43)nn1)=C\\CC[C@@]1(C)O[C@@H]21"
inequality_operator = "="
number = 4.52

[[record]]
compound = "N=c1oc2cc(O)c(O)cc2cc1C(N)=O"
inequality_operator = "="
number = 96.3

[[record]]
compound = "COc1cc(-c2ccc(-[n+]3nc(-c4ccc([N+](=O)[O-])cc4)nn3-c3ccc([N+](=O)[O-])cc3)c(OC)c2)ccc1-[n+]1nc(-c2ccc([N+](=O)[O-])cc2)nn1-c1ccc([N+](=O)[O-])cc1"
inequality_operator = "="
number = 2.95

[[record]]
compound = "CCC12CC[C@H](C#N)N3CCc4c(n(c5ccccc45)C(=O)C1)C32 (stereo partly specified)"
inequality_operator = "="
number = 27.6

[[record]]
compound = "O=S(=O)([N-]c1nc2ccccc2nc1-[n+]1ccccc1)c1ccccc1"
inequality_operator = ">"
number = 100

[[record]]
compound = "CCOC(=O)C1=C(C)C2C3C(=O)NC(=O)C3C1(C)C1C(=O)NC(=O)C21 (stereo unspecified)"
inequality_operator = ">"
number = 100

[[record]]
compound = "N#CC(c1ccc(Cl)cc1)c1cccc(Cl)n1 (stereo unspecified)"
inequality_operator = "="
number = 84.3

[[record]]
compound = "O=C(Nc1cccc(-c2nc3ccccc3[nH]2)c1)c1cccc(NC(=O)c2ccco2)c1"
inequality_operator = "="
number = 2.91

[[record]]
compound = "CC(=O)OCCC[C@@H]1C(=C(C)C)CCC2[C@@]1(C)CC[C@@]1(C)C[C@](C)(CCC=C(C)C)CC[C@]21C (stereo partly specified)"
inequality_operator = ">"
number = 100

[[record]]
compound = "COc1cc(C(=O)O)ccc1NC(=O)[C@@H]1N[C@@H](CC(C)(C)C)[C@](C#N)(c2ccc(Cl)cc2F)[C@H]1c1cccc(Cl)c1F"
inequality_operator = "="
number = 20.9

[[record]]
compound = "[N-]=[N+]=Nc1cc(=O)n(-c2ccccc2)c(=O)n1-c1ccccc1"
inequality_operator = ">"
number = 100

[[record]]
compound = "C1=Cc2nc1c(-c1ccccc1)c1ccc([n-]1)c(-c1ccccc1)c1nc(c(-c3ccccc3)c3ccc([n-]3)c2-c2ccccc2)C=C1.[Zn+2]"
inequality_operator = ">"
number = 100

[[record]]
compound = "Cc1nc2c(n1CCCl)C(=O)c1ccccc1C2=O"
inequality_operator = ">"
number = 100

[[record]]
compound = "CC1=C(C(=O)OC23CC4CC(CC(C4)C2)C3)C(c2ccccc2OC(F)F)C(C(=O)OC23CC4CC(CC(C4)C2)C3)=C(C)N1 (stereo unspecified)"
inequality_operator = ">"
number = 100

[[record]]
compound = "NC(=O)CC1(O)C=CC(=O)C=C1"
inequality_operator = ">"
number = 100

[[record]]
compound = "Nc1nc(F)nc2c1ncn2C1OC(COP(=O)(O)O)C(O)C1O (stereo unspecified)"
inequality_operator = "="
number = 713

[[record]]
compound = "CC(C)(C)c1cc(N=NC(=S)NCc2ccccc2)cc(C(C)(C)C)c1O"
inequality_operator = "="
number = 99.6

[[record]]
compound = "CNC(=O)C(C)NC(=O)C(Cc1ccccc1)NC(=O)OC(C)(C)C (stereo unspecified)"
inequality_operator = ">"
number = 100

[[record]]
compound = "Cn1cc(C(=O)/C(Cl)=C(\\Cl)C(=O)O)c2ccccc21"
inequality_operator = ">"
number = 100


Data provenance is PubChem BioAssay (NCI).
